- Assay system: Bifunctional epoxide hydrolase 2 (Homo sapiens)
- Assay protocol: Inhibition of sEH (unknown origin) assessed as reduction in 6-methoxy-2-naphthaldehyde formation at 100 uM using PHOME as substrate measured after 40 mins by fluorescence photometry analysis relative to control
Test readout: inhibition (%)

Worked examples follow.
>  <Compound smiles>
O=C(Oc1c(-c2ccc(O)c(O)c2)oc2cc(O)cc(O)c2c1=O)c1cc(O)c(O)c(O)c1

>  <inhibition [%]>
91.2

$$$$
>  <Compound smiles>
COc1cc(O)c2c(=O)cc(-c3ccc(O[C@@H]4O[C@H](CO)[C@@H](O)[C@H](O)[C@H]4O[C@@H]4OC[C@](O)(CO)[C@H]4O)c(OC)c3)oc2c1

>  <inhibition [%]>
66.1

$$$$
>  <Compound smiles>
C[C@@H]1O[C@@H](Oc2c(-c3ccc(O)c(O)c3)oc3cc(O)cc(O)c3c2=O)[C@H](O)[C@H](O)[C@H]1O

>  <inhibition [%]>
78.5

$$$$

P = COc1cc([C@@H](O)CC(=O)c2c(O)cc(O[C@@H]3O[C@H](CO)[C@@H](O)[C@H](O)[C@H]3O)cc2O)ccc1O
Q = COc1cc(O)c2c(=O)c(O[C@@H]3O[C@H](CO)[C@@H](O)[C@H](O)[C@H]3O)c(-c3ccc(O[C@@H]4O[C@H](CO)[C@@H](O)[C@H](O)[C@H]4O)c(OC)c3)oc2c1
R = COc1cc(O)c(C(=O)/C=C/c2ccc(O)c(OC)c2)c(O[C@@H]2O[C@H](CO)[C@@H](O)[C@H](O)[C@H]2O)c1
// query Rank entries according to their inhibition, from the largest number down. Please express your ranking as an ordered list of the labels.
// result Q, R, P
(Q: 95.8%, R: 56.3%, P: 33.9%)

The reported numbers originate from ChEMBL document CHEMBL4715726.
